Numbers sourced from patent US8415486B2.

Task for the reader: assign each of the following molecules its reported pKd.
biological target: XIAP BIR-3 (Homo sapiens, UniProt P98170); construct: 40 nM of the respective IAP BIR3; assay: Fluorescence polarization binding to XIAP BIR-3 with labeled peptide AbuRPF-K(5-Fam)-NH2; settings: 40 nM BIR3, 5 nM labeled peptide, reported as ranges
Sequence (P98170 241-356 limits assumed): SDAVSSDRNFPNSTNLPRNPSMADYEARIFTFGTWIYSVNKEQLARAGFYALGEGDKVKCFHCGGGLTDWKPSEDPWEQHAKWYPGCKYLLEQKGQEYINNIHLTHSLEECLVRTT
pKd: −log10 of the molar value.

Dear reader, for each entry below, please note its pKd.
1. CN[C@@H](C)C(=O)N[C@H](C(=O)N1CC[C@@H]2[C@H]1[C@@H](Oc1ccc(F)c(F)c1)CN2C(=O)NC(C)C)C(C)(C)C
2. CN[C@@H](C)C(=O)N[C@H](C(=O)N1CC[C@@H]2[C@H]1[C@@H](Oc1ccc(F)c(F)c1)CN2S(=O)(=O)CC(C)C)C(C)(C)C
3. CN[C@@H](C)C(=O)N[C@H](C(=O)N1CC[C@@H]2[C@H]1[C@@H](OC(=O)N(C)c1ccccc1)CN2C(=O)NC(C)C)C(C)(C)C
4. CN[C@@H](C)C(=O)N[C@H](C(=O)N1CC[C@@H]2[C@H]1[C@@H](OCc1ccc(F)cc1)CN2C(=O)OC(C)(C)C)C(C)(C)C
5. CN[C@@H](C)C(=O)N[C@H](C(=O)N1CC[C@@H]2[C@H]1[C@@H](Oc1ccc(F)c(F)c1)CN2S(C)(=O)=O)C(C)(C)C
6. CNC(=O)N1C[C@H](Oc2ccc(F)cc2)[C@@H]2[C@H]1CCN2C(=O)[C@@H](NC(=O)[C@H](C)NC)C1CCCCC1
7. CN[C@@H](C)C(=O)N[C@H](C(=O)N1CC[C@@H]2[C@H]1[C@@H](OCc1ccc(F)cc1)CN2C(=O)C(C)=O)C(C)(C)C

1. > 7.00
2. > 7.00
3. 6.00 to 7.00
4. > 7.00
5. > 7.00
6. > 7.00
7. > 7.00

Dear reader, for each entry below, please note its pKd.
1. CN[C@@H](C)C(=O)N[C@H](C(=O)N1CC[C@@H]2[C@H]1[C@@H](OC(=O)Nc1cccc3ccccc13)CN2C(=O)NC(C)C)C(C)(C)C
2. CN[C@@H](C)C(=O)N[C@H](C(=O)N1CC[C@@H]2[C@H]1[C@@H](OCc1ccc(F)cc1)CN2S(=O)(=O)CC(C)C)C(C)(C)C
3. CN[C@@H](C)C(=O)N[C@H](C(=O)N1CC[C@@H]2[C@H]1[C@@H](COc1ccc(F)c(F)c1)CN2C(=O)N(C)C)C(C)(C)C

1. 6.00 to 7.00
2. > 7.00
3. > 7.00

Dear reader, for each entry below, please note its pKd.
1. CN[C@@H](C)C(=O)N[C@H](C(=O)N1CC[C@@H]2[C@H]1[C@@H](COc1ccc(F)c(F)c1)CN2c1ncccn1)C(C)(C)C
2. CN[C@@H](C)C(=O)N[C@H](C(=O)N1CC[C@@H]2[C@H]1[C@@H](Oc1ccccc1)CN2C(=O)OC(C)(C)C)C(C)C
3. CN[C@@H](C)C(=O)N[C@H](C(=O)N1CC[C@@H]2[C@H]1[C@@H](OC(=O)N1CCCC1)CN2C(=O)NC(C)C)C(C)(C)C
4. CN[C@@H](C)C(=O)N[C@H](C(=O)N1CC[C@@H]2[C@H]1[C@@H](Oc1ccc(F)cc1)CN2S(C)(=O)=O)C(C)C
5. CN[C@@H](C)C(=O)N[C@H](C(=O)N1CC[C@@H]2[C@H]1[C@@H](OC(=O)N(c1ccccc1)c1ccccc1)CN2C(=O)NC(C)C)C(C)(C)C
6. CN[C@@H](C)C(=O)N[C@H](C(=O)N1CC[C@@H]2[C@H]1[C@@H](OCc1ccc(F)cc1)CN2C(C)=O)C(C)(C)C

["6.00 to 7.00", "6.00 to 7.00", "5.00 to 6.00", "> 7.00", "6.00 to 7.00", "> 7.00"]
